FYI, the data here is from PubChem BioAssay.

Molecular target: Streptavidin (Streptomyces avidinii) (UniProt P22629)
Sequence (P22629 whole entry, looked up): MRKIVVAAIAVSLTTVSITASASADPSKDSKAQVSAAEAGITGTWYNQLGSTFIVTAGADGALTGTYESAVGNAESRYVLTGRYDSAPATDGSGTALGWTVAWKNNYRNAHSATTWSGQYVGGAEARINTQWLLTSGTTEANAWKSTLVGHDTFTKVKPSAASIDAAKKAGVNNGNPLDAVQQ
Assay: streptavidin binders on small-molecule microarray, primary screen, artefact control for SMM compound annotation, biophysical, 635/667 nm fluorescence (AID 1147);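 also: signal reflects streptavidin binding to arrayed compounds as a control protein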
Details: streptavidin binding, higher = more signal
Label 1 for high-side composite z-score (at or above -0.1) and 0 for low-side composite z-score (below it).

Please review the following examples before continuing.
| compound | label_value |
| --- | --- |
| COc1ccc(COC(=O)NN=C2C[C@@H](O)[C@@H](O)[C@@H]3[C@@H]4C(=O)N(Cc5ccccc5)C(=O)[C@@H]4CC[C@@H]23)cc1 | 0 |
| CO[C@H]1COC(=O)CCC[C@H](C)[C@@H](OC)COC(=O)CC=C[C@@H]1C | 0 |

From here, focus on the item given below.
Check if composite z-score >= -0.1 (inclusive). Item: COCCNC(=O)OCC1CCCC2(CC(OC(=O)NCc3cccc4ccccc34)CC(CCC(=O)N[C@@H](C)C(=O)OC)O2)O1 (some centres undefined)
1

---

Quick list: z-score per entry.
Assay: HepG2 liver cancer cell viability effects, profiling panel, resazurin fluorescence, 24 h, PK04 Diversity Set (AID 1172); also: test concentration not given here
Details: higher = more signal
Reply briefly: the number, and no unit.

Worked set:
| compound | z-score |
| --- | --- |
| CCOC(=O)[C@H](Cc1ccccc1)NC(=O)CCC1CC(OC(=O)NCc2ccc3c(c2)OCO3)CC2(CCCC(COC(=O)NCCCN3CCCC3=O)O2)O1 (some centres undefined) | 0.557 |
| CC(C)[C@H](NC(=O)OC(C)(C)C)[C@@H](O)CC(=O)C(C)(C)C | 0.365 |
| CCCNC(=O)OC[C@H]1O[C@H](CCON=C[C@@H](C)[C@H](OCc2ccccc2)C(C)C)C=C[C@@H]1Oc1ccc(OC)cc1 | -0.208 |

Could you now consider this next compound?
Name the reported z-score value associated with the compound "CCOC(=O)CCN1C(=O)[C@H]2[C@H]3[C@H](O)[C@H](O)CC(=NNC(=O)OCc4ccc(OC)cc4)[C@H]3CC[C@H]2C1=O"
0.0785

---

Recorded z-score for the following compounds
Assay: HepG2 liver cancer cell viability effects, profiling panel, resazurin fluorescence, 24 h, PK04 Diversity Set (AID 1172); also: test concentration not given here
Details: higher = more signal
# print the numeric value only

Record excerpt, results attached:
| compound_string | z-score |
| --- | --- |
| O=C1[C@H]2[C@H]3[C@H](O)[C@H](O)CC(=NO[C@@H]4O[C@H](CO)[C@@H](O)[C@H](O)[C@H]4O)[C@H]3CC[C@H]2C(=O)N1C[C@@H]1CCCO1 | 0.724 |
| C#CCCCON=C1C[C@@H](O)[C@@H](O)[C@@H]2[C@@H]3C(=O)N(C4CCCCC4)C(=O)[C@@H]3CC[C@@H]12 | -0.673 |

Request the reported z-score associated with "O=C1[C@H]2[C@H]3[C@H](O)[C@H](O)CC(=NO[C@@H]4O[C@H](CO)[C@@H](O)[C@H](O)[C@H]4O)[C@@H]3CC[C@H]2C(=O)N1C[C@@H]1CCCO1"
-0.0979

---

Below, each of the compounds is paired with its reported composite z-score value.
Assay: compound binding in COS7 lysate, probe aLAP1, primary screen, cell lysate, small-molecule microarray (AID 1124);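 also: lysate comes from COS7 cells expressing LAP1 and is applied at 0.3 µg/mL; score merges spot fluorescence near 667 nm with signal-to-noise over triplicate slides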
Settings: probe aLAP1, fluorescence, higher = more signal

Illustrative cases are given below, each with its answer.
| compound | property | result |
| --- | --- | --- |
| COc1ccc(COC(=O)NN=C2C[C@@H](O)[C@@H](O)[C@@H]3[C@@H]4C(=O)N([C@@H](C)c5ccccc5)C(=O)[C@@H]4CC[C@H]23)cc1 | composite z-score | -0.266 |
| CO[C@@H]1COC(=O)[C@H](CCSC)NC(=O)CC=C[C@@H](C)COC(=O)[C@@H]2CCCN2C(=O)CC=C[C@H]1C | composite z-score | -0.328 |

Which composite z-score value belongs to "CC(CCN1CCCc2nc(C)c(C)cc21)=NO[C@@H](C)c1cn([C@H](CO)Cc2ccccc2)nn1" ?
-0.0771

Which composite z-score value belongs to C=CC[C@@H]1C=CC(ON=C(C)C)[C@@H](CO)O1 (some centres undefined) ?
-0.178
